# TESTED ON: Glutamate receptor ionotropic, NMDA 1 (Rattus norvegicus)
The entries below are paired with their reported pKi.
pKi field: float, defined as -log10 of concentration (mol/L).

* N[C@@H](CCP(=O)(O)O)C(=O)O | 5.82

Then this compound:
Data request: What value of measured pKi is listed for N[C@@H](Cn1oc(=O)[nH]c1=O)C(=O)O ?
Data returned: 6.59

====

# TESTED ON: Glutamate receptor ionotropic, NMDA 1 (Rattus norvegicus, UniProt P35439)
METRIC: pKi
Keep in mind that pKi stands for -log10 of concentration in molar terms.

Some compounds with known pKi results, for comparison:
- CC(C[C@H](N)C(=O)O)P(=O)(O)O (stereo partly specified) [gamma-methyl-APB]: 5.07
- N[C@@H](CC(=O)O)C(=O)O [L-Aspartic acid, 2]: 5.10

Now for the compound whose pKi we want.
Data request: // pKi lookup, key: CP(=O)(O)CCC(N)C(=O)O (stereo unspecified)
Data returned: 5.42

====

# TESTED ON: Glutamate receptor ionotropic, NMDA 1 (Rattus norvegicus, UniProt P35439)
pKi: −log10 of the molar value.
Below is a list of entries, each paired with its recorded pKi value.

* N[C@H](CCCP(=O)(O)O)C(=O)O | < 5.00
* N[C@H](CCP(=O)(O)O)C(=O)O | < 5.00

Kindly review the next compound as well.
Data request: Record N[C@H](CC(=O)O)C(=O)O : what is its pKi with Glutamate receptor ionotropic, NMDA 1 (Rattus norvegicus, UniProt P35439)?
Data returned: < 5.00

Source of measurements: BindingDB's records for doi:10.1021/bi00331a002
